Assay: Binding affinity to free form of HIV-1 p66/p51 reverse transcriptase K103N/Y181C double mutant using poly(rA)/oligo(dT) as templates in presence of [3H]dTTP
Design: species or system Human immunodeficiency virus 1
VALUE_TYPE: Ki
Kindly write the number and append the unit.

Briefly, Ki measured for Cc1cc(C)cc(S(=O)(=O)c2c(C(=O)NCc3ccccc3O)[nH]c3ccc(Cl)cc23)c1 : 137 nM

* * *

Record form. Attribute: CC50. Fill in for each entry.
Assay: Cytotoxicity against human MT-4 cells assessed as reduction in cell viability by MTT assay
Type: cell-based, MT4
Respond with the bare value in µM.

Briefly, CC50 measured for Cc1cc(C)cc(S(=O)(=O)c2c(C(=O)NCc3ccc(CO)cc3)[nH]c3ccc(Cl)cc23)c1 : 31.1

Briefly, CC50 measured for Cc1cc(C)cc(S(=O)(=O)c2c(C(=O)NCCc3ccccc3O)[nH]c3ccc(Cl)cc23)c1 : 23.8

Briefly, CC50 measured for Cc1cc(C)cc(S(=O)(=O)c2c(C(=O)NCCc3ccc(O)cc3)[nH]c3ccc(Cl)cc23)c1 : 27.4

Briefly, CC50 measured for COc1cc(CNC(=O)c2[nH]c3ccc(Cl)cc3c2S(=O)(=O)c2cc(C)cc(C)c2)ccc1O : 28.7

Briefly, CC50 measured for Cc1cc(C)cc(S(=O)(=O)c2c(C(=O)NCc3ccccc3N)[nH]c3ccc(Cl)cc23)c1 : 46.2
